This collection of values is drawn from ChEMBL document CHEMBL4699542.

Provide the recorded solubility kinetic for the entries that follow.
# assay-notes: Kinetic aqueous solubility of the compound in pH 7.4 PBS buffer by UV/Visible absorbance analysis
# Type: physicochemical
# test-conditions: read-out: Kinetic_solubility
Numbers only here, please. The scale is µM.

For COc1nc(-c2csc(Nc3cc(C(F)(F)F)nn3CC(F)(F)F)n2)ccc1-n1cnc(C)c1 the compound record lists solubility kinetic as 2

For COc1nc(-c2csc(Nc3c4c(nn3CCO)CCCC4)n2)ccc1-n1cnc(C)c1 the compound record lists solubility kinetic as 31

For COc1nc(-c2csc(Nc3c4c(nn3CCCO)CCCC4)n2)ccc1-n1cnc(C)c1 the compound record lists solubility kinetic as 23

For COc1nc(-c2csc(Nc3c4c(nn3C(C)(C)C)CCCC4)n2)ccc1-n1cnc(C)c1 the compound record lists solubility kinetic as 34

For CCCn1nc(C(C)(C)C)cc1Nc1nc(-c2ccc(-n3cnc(C)c3)c(OC)n2)cs1 the compound record lists solubility kinetic as 2.1

For CCn1nc2c(c1Nc1nc(-c3ccc(-n4cnc(C)c4)c(OC)n3)cs1)CCCC2 the compound record lists solubility kinetic as 4.5

For COc1nc(-c2csc(Nc3c4c(nn3CC(C)(C)O)CCCC4)n2)ccc1-n1cnc(C)c1 the compound record lists solubility kinetic as 22

For CCn1nc(C2(C)CC2)cc1Nc1nc(-c2ccc(-n3cnc(C)c3)c(OC)n2)cs1 the compound record lists solubility kinetic as 6.7

For COc1nc(-c2csc(Nc3c4c(nn3C3CCC3)CCC4)n2)ccc1-n1cnc(C)c1 the compound record lists solubility kinetic as 2.7

For CCn1nc2c(c1Nc1nc(-c3ccc(-n4cnc(C)c4)c(OC)n3)cs1)C(C)CC2(C)C (racemic) the compound record lists solubility kinetic as 9.2

For COc1nc(-c2csc(Nc3c4c(nn3C3CCC3)CCCC4)n2)ccc1-n1cnc(C)c1 the compound record lists solubility kinetic as 30

For CCn1nc2c(c1Nc1nc(-c3ccc(-n4cnc(C)c4)c(OC)n3)cs1)CCC2(C)C the compound record lists solubility kinetic as 8.8

For CCn1nc2c(c1Nc1nc(-c3ccc(-n4cnc(C)c4)c(OC)n3)cs1)CCCCC2 the compound record lists solubility kinetic as 4.3

For COc1nc(-c2csc(Nc3c4c(nn3CCCN3CCOCC3)CCCC4)n2)ccc1-n1cnc(C)c1 the compound record lists solubility kinetic as 39

For COc1nc(-c2csc(Nc3c4c(nn3CCN3CCCCC3)CCCC4)n2)ccc1-n1cnc(C)c1 the compound record lists solubility kinetic as 46

For COc1nc(-c2csc(Nc3c4c(nn3C)CCCC4)n2)ccc1-n1cnc(C)c1 the compound record lists solubility kinetic as 15

For CCn1nc2c(c1Nc1nc(-c3ccc(-n4cnc(C)c4)c(OC)n3)cs1)CCC2 the compound record lists solubility kinetic as 7.8

###

# assay-notes: Oral bioavailability in CD-1 mouse at 5 mg/kg administered as single dose measured up to 24 hrs
# Format: ADME, organism-based
# test-conditions: in vivo
Would you please tag the item Y when its F is 70% or above, and N when it is below?

Inquiry: Does the compound CCn1nc(C(F)(F)F)cc1Nc1nc(-c2ccc(-n3cnc(C)c3)c(OC)n2)cs1 have recorded F that is 70% or more?
Reply text: Y

Inquiry: Does the compound CCn1nc2c(c1Nc1nc(-c3ccc(-n4cnc(C)c4)c(OC)n3)cs1)CCC2 have recorded F that is 70% or more?
Reply text: N

Inquiry: Does the compound COc1nc(-c2csc(Nc3c4c(nn3C)CCC4)n2)ccc1-n1cnc(C)c1 have recorded F that is 70% or more?
Reply text: Y

Inquiry: Does the compound CCn1nc2c(c1Nc1nc(-c3ccc(-n4cnc(C)c4)c(OC)n3)cs1)CCCC2 have recorded F that is 70% or more?
Reply text: N

Inquiry: Does the compound CCn1nc(C2(C)CC2)cc1Nc1nc(-c2ccc(-n3cnc(C)c3)c(OC)n2)cs1 have recorded F that is 70% or more?
Reply text: N

###

Provide the recorded concentration at 72 h for the entries that follow.
# assay-notes: Drug level in plasma of transgenic J20 mouse overexpressing human APP at 50 mg/kg, po administered via gavage for 3 consecutive days and measured after 4 hrs post last dose on day 3 by HPLC-MS/MS analysis
# Assay type: ADME, organism-based
# test-conditions: time 3 day
Numbers only here, please. The scale is ng/mL.

For COc1nc(-c2csc(Nc3c4c(nn3CCF)CCCC4)n2)ccc1-n1cnc(C)c1 the compound record lists concentration at 72 h as 639

For CCn1nc2c(c1Nc1nc(-c3ccc(-n4cnc(C)c4)c(OC)n3)cs1)CCC2 the compound record lists concentration at 72 h as 223

###

# assay-notes: AUClast in CD-1 mouse at 5 mg/kg, po administered as single dose measured up to 24 hrs
# Assay type: ADME, organism-based
# Set-up: route oral, dose 5 mg/kg, time <=24
# test-conditions: in vivo
result-type: AUClast (µg·h/mL)
Numbers only here, please. The scale is µg·h/mL.

For CCn1nc2c(c1Nc1nc(-c3ccc(-n4cnc(C)c4)c(OC)n3)cs1)CCCC2 the compound record lists AUClast as 1.089

For CCn1nc2c(c1Nc1nc(-c3ccc(-n4cnc(C)c4)c(OC)n3)cs1)CCC2 the compound record lists AUClast as 1.205

For COc1nc(-c2csc(Nc3c4c(nn3C)CCC4)n2)ccc1-n1cnc(C)c1 the compound record lists AUClast as 2.7

For CCn1nc(C(F)(F)F)cc1Nc1nc(-c2ccc(-n3cnc(C)c3)c(OC)n2)cs1 the compound record lists AUClast as 1.727

For CCn1nc(C2(C)CC2)cc1Nc1nc(-c2ccc(-n3cnc(C)c3)c(OC)n2)cs1 the compound record lists AUClast as 3.976

###

# assay-notes: Metabolic stability in mouse liver microsomes assessed as parent compound remaining at 1 uM incubated for 30 mins
# Type: ADME, Microsome
# test-conditions: 0.5 h
Define the label as label 1 when Stabilty is strictly less than 40% and as label 0 in all remaining cases.

Inquiry: Is Stabilty strictly under 40% for the entry CCn1nc(C(C)(C)C)cc1Nc1nc(-c2ccc(-n3cnc(C)c3)nc2)cs1 ?
Reply text: label 0

Inquiry: Is Stabilty strictly under 40% for the entry COc1nc(-c2csc(Nc3c4c(nn3C)CCCC4)n2)ccc1-n1cnc(C)c1 ?
Reply text: label 1

Inquiry: Is Stabilty strictly under 40% for the entry COc1nc(-c2csc(Nc3c4c(nn3C3CCC3)CCCC4)n2)ccc1-n1cnc(C)c1 ?
Reply text: label 0

Inquiry: Is Stabilty strictly under 40% for the entry COc1nc(-c2csc(Nc3cc(C(C)(C)C)nn3CC(F)(F)F)n2)ccc1-n1cnc(C)c1 ?
Reply text: label 0

Inquiry: Is Stabilty strictly under 40% for the entry COc1nc(-c2csc(Nc3c4c(nn3CCCO)CCCC4)n2)ccc1-n1cnc(C)c1 ?
Reply text: label 1

Inquiry: Is Stabilty strictly under 40% for the entry COc1cc(-c2csc(Nc3cc(C(C)(C)C)nn3C)n2)ccc1-n1cnc(C)c1 ?
Reply text: label 0

Inquiry: Is Stabilty strictly under 40% for the entry CCn1nc(C2(C)CC2)cc1Nc1nc(-c2ccc(-n3cnc(C)c3)c(OC)n2)cs1 ?
Reply text: label 0

Inquiry: Is Stabilty strictly under 40% for the entry COc1nc(-c2csc(Nc3c4c(nn3CCN3CCOCC3)CCCC4)n2)ccc1-n1cnc(C)c1 ?
Reply text: label 1

Inquiry: Is Stabilty strictly under 40% for the entry COc1nc(-c2csc(Nc3c4c(nn3C(C)C)CCC4)n2)ccc1-n1cnc(C)c1 ?
Reply text: label 1

Inquiry: Is Stabilty strictly under 40% for the entry COc1nc(-c2csc(Nc3c4c(nn3C3CCC3)CCC4)n2)ccc1-n1cnc(C)c1 ?
Reply text: label 1

Inquiry: Is Stabilty strictly under 40% for the entry COc1nc(-c2csc(Nc3c4c(nn3CCO)CCC4)n2)ccc1-n1cnc(C)c1 ?
Reply text: label 0

Inquiry: Is Stabilty strictly under 40% for the entry CCn1nc2c(c1Nc1nc(-c3ccc(-n4cnc(C)c4)c(OC)n3)cs1)C(C)CC2(C)C (racemic) ?
Reply text: label 1

Inquiry: Is Stabilty strictly under 40% for the entry COc1nc(-c2csc(Nc3c4c(nn3C)CCC4)n2)ccc1-n1cnc(C)c1 ?
Reply text: label 0

Inquiry: Is Stabilty strictly under 40% for the entry CCn1nc(C(F)(F)F)cc1Nc1nc(-c2ccc(-n3cnc(C)c3)c(OC)n2)cs1 ?
Reply text: label 0

Inquiry: Is Stabilty strictly under 40% for the entry COc1nc(-c2csc(Nc3c4c(nn3CCF)CCCC4)n2)ccc1-n1cnc(C)c1 ?
Reply text: label 0

Inquiry: Is Stabilty strictly under 40% for the entry COc1nc(-c2csc(Nc3c4c(nn3CCF)CCC4)n2)ccc1-n1cnc(C)c1 ?
Reply text: label 0

Inquiry: Is Stabilty strictly under 40% for the entry CCn1nc2c(c1Nc1nc(-c3ccc(-n4cnc(C)c4)c(OC)n3)cs1)CCC2(C)C ?
Reply text: label 0

###

# assay-notes: Apparent permeability from apical to basolateral membrane in MDCK-MDR1 cells
# Assay type: ADME, cell-based, Canis lupus familiaris
# test-conditions: dog
result-type: Papp

For COc1nc(-c2csc(Nc3c4c(nn3CC(C)(C)O)CCCC4)n2)ccc1-n1cnc(C)c1 the compound record lists Papp as 17.5 10^-6 cm/s

For COc1nc(-c2csc(Nc3c4c(nn3C(C)(C)C)CCCC4)n2)ccc1-n1cnc(C)c1 the compound record lists Papp as 14.8 10^-6 cm/s

For CCn1nc(C(F)(F)F)cc1Nc1nc(-c2ccc(-n3cnc(C)c3)c(OC)n2)cs1 the compound record lists Papp as 23.3 10^-6 cm/s

For COc1nc(-c2csc(Nc3c4c(nn3CCO)CCCC4)n2)ccc1-n1cnc(C)c1 the compound record lists Papp as 18 10^-6 cm/s

For CCn1nc2c(c1Nc1nc(-c3ccc(-n4cnc(C)c4)c(OC)n3)cs1)CCC2 the compound record lists Papp as 29.6 10^-6 cm/s

For COc1nc(-c2csc(Nc3c4c(nn3CC(F)(F)F)CCC4)n2)ccc1-n1cnc(C)c1 the compound record lists Papp as 17.6 10^-6 cm/s

For COc1nc(-c2csc(Nc3c4c(nn3CCF)CCCC4)n2)ccc1-n1cnc(C)c1 the compound record lists Papp as 32.6 10^-6 cm/s

For COc1nc(-c2csc(Nc3c4c(nn3C)CCC4)n2)ccc1-n1cnc(C)c1 the compound record lists Papp as 22.3 10^-6 cm/s

For CCn1nc(C2(C)CC2)cc1Nc1nc(-c2ccc(-n3cnc(C)c3)c(OC)n2)cs1 the compound record lists Papp as 18.5 10^-6 cm/s
